B1: glmS ribozyme (parent)
chain: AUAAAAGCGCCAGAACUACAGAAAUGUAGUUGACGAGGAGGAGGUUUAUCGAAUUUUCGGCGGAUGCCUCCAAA

# Variants of: B1
# ASSAY METHOD TEXT: self-cleavage kobs at 160 uM GlcN6P; higher = faster cleavage; RNA array
# EXPERIMENTAL PARAMETERS: with glucosamine-6-phosphate
This sample holds only a part of the variants without activity.
VALUE TYPE: self-cleavage kobs at 160 uM GlcN6P

Output measured self-cleavage kobs at 160 uM GlcN6P for this item: ACAAAAGCGCCAGAACUACAGAAAUGUAGUUGACGAGGAGGAGGUUUAUCGAAUUCUCGGCGGAUGCCUCCAAA 0.000197 s⁻¹

Output measured self-cleavage kobs at 160 uM GlcN6P for this item: AUAAAAUCGCCCGAACUACAGAAAUGUAGUUGACGAGGAGAAGGUUUAUCGAAUUUUCGGCGGAUGCCUCCAAA < 1e-05 s⁻¹

Output measured self-cleavage kobs at 160 uM GlcN6P for this item: AUAAAAGCGCCAGAUCUACAGAAAUGUAGUUGACGAGGAGGAGGUUUAUAGAAUUUUCGGCGGUUGCCUCUAAA < 1e-05 s⁻¹

Output measured self-cleavage kobs at 160 uM GlcN6P for this item: AUAAAGGCGCCAGAACUACAGAAAUGUACUUGACGAGGAGGAGGUUUAUCGAAUUUUCGGCGGAUGCCUGCAAA < 1e-05 s⁻¹
